Target: T1, His-tagged human CTLA-4 (CT4-H5229; Acro Biosystems) (human, UniProt P16410 36-161)
T1 construct: bought soluble protein; also called soluble human CTLA-4; recombinant human CTLA-4; not shown: His tag
T1 sequence (P16410 36-161 limits assumed): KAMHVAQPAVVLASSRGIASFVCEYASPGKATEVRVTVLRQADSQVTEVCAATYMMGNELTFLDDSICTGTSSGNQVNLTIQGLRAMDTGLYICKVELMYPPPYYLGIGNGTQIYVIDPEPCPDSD
Assay: SPR (Carterra)
Documented pKd across a set of binders
FYI, pKd means -log10 of a concentration in mol per litre.

{"binder": "antibody A1 (L1H1) (antibody, V domains shown, also called aCTLA-4.9; CTLA4.A1) VH: QVQLVESGGGVVQPGRSLRLSCAASGFTFSSFGMHWVRQAPGKGLEWVAVIWYDGRNKYYVDSVKGRFTISRDNSNNTLYLQMNSLRAEDTAVYYCARGEFFGEFFDYWGQGTLVTVSS VL: EIVLTQSPGTLSLSPGEGATLSCRASQSFSSNYLAWYQQKPGQAPRLLIYGASSRATGIPDRFSGSGSGTDFTLTISRLEPEDFAVYYCQQYGTSPFTFGPGTKVDIK", "pKd": 9.11}
{"binder": "antibody A16 (L16H16) (antibody, V domains shown, also called aCTLA-4.5) VH: QVQLVESGGGVVQPGRSLRLSCAASGFTFSSYGIHWVRQAPGKGLEWVAVIWYDGSNKYYADSVKGRFTISRDNSKNTLYLQMNSLRAEDTAVYYCARGSLLGPFDYWGQGTLVTVSS VL: DIQMTQSPSSLSASVGDRVTITCRASQGISNYLAWYQQKPGKVPKLLIYAASTLQSGVPSRFSGSGSGTDFTLTISSLQPEDVATYYCQNYNSAPWTFGQGTKVEIK", "pKd": 7.64}
{"binder": "antibody A17 (L17H17) (antibody, V domains shown, also called aCTLA-4.17) VH: EVQLVESGGGLVQPGGSLRLSCAASGFTFSNYAMSWVRQAPGKGLEWVSAISGGGLSTYYADSVKGRFTISRDNSKNTLYLQMNSLRAEDTAVYYCAKDLLWLGFDYWGQGTLVTVSS VL: DIQMTQSPSSLSASVGDRVTITCRASQAIRNDLGWYQQKPGKAPKRLIYAASSLQSGVPPRFSGSGSGTEFTLTISSLQPEDFATYYCLQHNSYPLTFGGGTKVEIK", "pKd": 7.29}
{"binder": "antibody A8 (L8H8) (antibody, V domains shown, also called aCTLA-4.1) VH: QVQLVESGGGVVQPGRSLRLSCAASGFTFSRYGMHWVRQAPGKGLEWVAVIWYDGRNKYYADSVKGRFTISRDNSKNTLYLQMNSLRAEDTALYSCARAGELGPFDYWGQGTLVTVSS VL: EIVLTQSPGTLSLSPGERATLSCRASQSVSYLAWYQQKPGQAPRLLIYGASSRATGIPDRFSGSGSGTDFTLTISRLEPEDFAVYYCQQYGSSPWTFGQGTKVEIK", "pKd": 8.34}
{"binder": "antibody A4 (L4H4) (antibody, V domains shown, also called aCTLA-4.29) VH: QVQLVESGGGVVQPGRSLRISCAASGFTFSSYGIHWVRQAPGKGLQWVAVIWYDGRNKYYADSVKGRFTISRDNSKNTLYLQMNSLRAEDTAVYYCSRSGSFGAFDIWGQGTMVTVSS VL: EIVLTQSPGTLSLSPGDRATLSCRASQSGSSSYLAWYQQKPGQAPRLLIYGASSRATGIPDRFSGSGSGTDFTLTISRLEPEDFAVYYCQQYGTSPFTSGPGTKVDIK", "pKd": 8.52}

Exam item: Entry under review: antibody A5 (L5H5) (antibody, V domains shown, also called aCTLA-4.28; CTLA4.A5) VH: QVQLVESGGGVVQPGRSLRLSCAASGFTFSSYGMHWVRQAPGKGLEWVAVIWYDGNNKYYADSVKGRFTISRDNSKNTLYLQMYSLRAEDTAVYYCARGGILAAGIFDYWGQGTLVTVSS VL: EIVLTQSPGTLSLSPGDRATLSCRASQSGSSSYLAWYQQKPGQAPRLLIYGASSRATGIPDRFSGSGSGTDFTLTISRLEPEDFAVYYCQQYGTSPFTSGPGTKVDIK . Reported pKd?
Marked response: 8.34

Exam item: Try the binder antibody A11 (L11H11) (antibody, V domains shown, also called aCTLA-4.31) VH: QVQLVESGGGVVQPGRSLRLSCAASGFTFSSYGMHWVRQAPGKGLEWVAVIWYDVGNKYYIDSVKGRFTISRDNSKNTLYLQMNSLRAEDTAVYYCARDYYGSGSPRHFDYWGQGTLVTVSS VL: DIQLTQSPSFLSASVGDRVTITCRASQGISSYLAWYQQKPGKAPKLLIYAASTLQSGVPSRFSGSGSGTEFTLTISSLQPEDFATYYCQQLNSYPPTFGQGTKVEIK
Marked response: 8.12
